In this section we review reported EC50 values for a set of binders.
- measurement target: T1, cynomolgus TPBG protein, full-length, on the cell surface (cynomolgus, UniProt Q4R8Y9 35-420)
- T1 construct: whole, on cells; also called cTPBG; CHOk1-cTPBG
- T1 sequence (looked up): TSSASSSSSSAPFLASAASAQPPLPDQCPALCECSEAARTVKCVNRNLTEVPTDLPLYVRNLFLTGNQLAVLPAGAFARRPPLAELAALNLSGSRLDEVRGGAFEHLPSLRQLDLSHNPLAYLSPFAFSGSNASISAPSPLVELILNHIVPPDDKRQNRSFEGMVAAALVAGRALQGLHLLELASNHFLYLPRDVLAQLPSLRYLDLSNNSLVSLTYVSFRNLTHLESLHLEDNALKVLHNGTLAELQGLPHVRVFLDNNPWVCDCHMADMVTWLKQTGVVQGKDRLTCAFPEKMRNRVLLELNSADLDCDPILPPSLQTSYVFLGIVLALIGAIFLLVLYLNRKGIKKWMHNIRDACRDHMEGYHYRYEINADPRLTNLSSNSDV
- assay comment: FACS on CHOK1-cTPBG cells
// units = nM; emit number, no label

binder: Humanized antibody 28D4-3 (antibody, V domains shown, also called h28D4-3) VH: EVQLVESGGGLVKPGGSLRLSCAASGFTFSNYVMSWIRQAPGKGLEWVAEISTGGSHTYYSDTVTGRFTISRDNAKKSLYLQMNSLRAEDTAVYYCIMFYYGSSYSMDYWGQGTTVTVSS VL: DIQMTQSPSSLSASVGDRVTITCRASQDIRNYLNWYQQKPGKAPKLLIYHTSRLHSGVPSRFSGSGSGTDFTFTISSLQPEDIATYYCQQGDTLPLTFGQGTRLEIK
EC50 / nM: 0.62

// EC50 lookup, binder = Humanized antibody 28D4-7 (antibody, V domains shown, also called h28D4-7) VH: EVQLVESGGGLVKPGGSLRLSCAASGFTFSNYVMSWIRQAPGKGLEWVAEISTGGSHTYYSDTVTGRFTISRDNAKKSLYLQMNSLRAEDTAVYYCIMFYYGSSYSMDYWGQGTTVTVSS VL: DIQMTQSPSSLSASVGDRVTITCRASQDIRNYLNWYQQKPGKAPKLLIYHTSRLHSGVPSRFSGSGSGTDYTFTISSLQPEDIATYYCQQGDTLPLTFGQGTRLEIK , result: 0.27

Humanized antibody 28D4-4 (antibody, V domains shown, also called h28D4-4) VH: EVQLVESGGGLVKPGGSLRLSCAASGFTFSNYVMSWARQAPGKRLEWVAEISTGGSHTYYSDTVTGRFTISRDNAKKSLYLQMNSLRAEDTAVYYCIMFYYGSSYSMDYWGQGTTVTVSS VL: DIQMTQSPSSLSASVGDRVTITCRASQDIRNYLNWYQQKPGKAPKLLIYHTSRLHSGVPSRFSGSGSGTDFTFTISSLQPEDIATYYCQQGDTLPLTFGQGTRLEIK has a reported EC50 of 0.72

# EC50 of Chimeric antibody 28D4 (antibody, V domains shown, Mouse variable domains on human IgG1 heavy and human kappa light constant regions; also called c28D4; TPBG chimeric antibody 28D4) VH: DVQLVESGGGLVRPGGSLKLSCAASGFTFSNYVMSWARQSPEKRLEWVAEISTGGSHTYYSDTVTGRFTISRDNAKKALYLEMSSLRSEDTAIYYCIMFYYGSSYSMDYWGQGTSVTVSS VL: DIQMTQSTSSLSASLGDRITISCRASQDIRNYLNWYQQKPDGTVKLLIYHTSRLHSGVPSRFSGSGSGTDYSLTISNLEQEDIATYFCQQGDTLPLTFGAGTRLELK = 0.94
